Tested on: Colorectal cancer tumor cells
Test protocol: MTT proliferation inhibition, colorectal cancer cells
Assay type: cell-based, human
Parameters: concentration or dose not given beside the values
Assay conditions: 48 h
Where no end group is shown, it is not given here.
The reader will find reported rate of growth inhibition values listed item by item below.
Numbers only here, please. The scale is %.

Substance	Measurement target	Reading unit	rate of growth inhibition
mPEG-ALD40k-Arg-Gly-Ala-Asp-Arg-Ala-Gly-Gly-Gly-Gly-Arg-Gly-Asp ({mPEG‑ALD 40 kDa}-RGADRAGGGGRGD) [mPEG-ALD40k-HM-1]	Colorectal cancer tumor cells	%	70.92

Incoming: Look at this substance and give its reported rate of growth inhibition. mPEG-ALD20k-Arg-Gly-Ala-Asp-Arg-Ala-Gly-Gly-Gly-Gly-Arg-Gly-Asp ({mPEG‑ALD 20 kDa}-RGADRAGGGGRGD) [mPEG-ALD20k-HM-1]
Outgoing: 72.43

Incoming: Look at this substance and give its reported rate of growth inhibition. mPEG2-NHS40k-Arg-Gly-Ala-Asp-Arg-Ala-Gly-Gly-Gly-Gly-Arg-Gly-Asp ({mPEG2‑NHS 40 kDa}-RGADRAGGGGRGD) [mPEG2-NHS40k-HM-1]
Outgoing: 54.40

* * *

Test system: choroidal neovascularization in BN rats
Test protocol: Laser-induced choroidal neovascularization in BN rats (FFA)
Format: in vivo, rat
Assay conditions: Day 28; 200 μg intravitreally once daily for 1 week (Table 53)
Where no end group is shown, it is not given here.
The reader will find reported CNV Incidence rate values listed item by item below.
# answer = value followed by unit

Incoming: Field: CNV Incidence rate (choroidal neovascularization in BN rats). Entry: mPEG-ALD40k-Arg-Gly-Ala-Asp-Arg-Ala-Gly-Gly-Gly-Gly-Arg-Gly-Asp ({mPEG‑ALD 40 kDa}-RGADRAGGGGRGD) [mPEG-ALD40k-HM-1]
Outgoing: 42.25%

Incoming: Field: CNV Incidence rate (choroidal neovascularization in BN rats). Entry: mPEG-bALD40k-Arg-Gly-Ala-Asp-Arg-Ala-Gly-Gly-Gly-Gly-Arg-Gly-Asp ({mPEG‑bALD 40 kDa}-RGADRAGGGGRGD) [mPEG-bALD40k-HM-1]
Outgoing: 42.03%

Incoming: Field: CNV Incidence rate (choroidal neovascularization in BN rats). Entry: mPEG2-NHS40k-Arg-Gly-Ala-Asp-Arg-Ala-Gly-Gly-Gly-Gly-Arg-Gly-Asp ({mPEG2‑NHS 40 kDa}-RGADRAGGGGRGD) [mPEG2-NHS40k-HM-1]
Outgoing: 41.18%

Incoming: Field: CNV Incidence rate (choroidal neovascularization in BN rats). Entry: mPEG-SC40k-Arg-Gly-Ala-Asp-Arg-Ala-Gly-Gly-Gly-Gly-Arg-Gly-Asp ({mPEG‑SC 40 kDa}-RGADRAGGGGRGD) [mPEG-SC40k-HM-1]
Outgoing: 43.28%

* * *

Assay conditions: in vivo
Where no end group is shown, it is not given here.
The reader will find reported AUC0-∞ values listed item by item below.
Numbers only here, please. The scale is mg/L/h.

Substance	Reading unit	AUC0-∞
mPEG-SC20k-Arg-Gly-Ala-Asp-Arg-Ala-Gly-Gly-Gly-Gly-Arg-Gly-Asp ({mPEG‑SC 20 kDa}-RGADRAGGGGRGD) [mPEG-SC20k-HM-1]	mg/L/h	4310.23
mPEG2-NHS10k-Arg-Gly-Ala-Asp-Arg-Ala-Gly-Gly-Gly-Gly-Arg-Gly-Asp ({mPEG2‑NHS 10 kDa}-RGADRAGGGGRGD) [mPEG2-NHS10k-HM-1]	mg/L/h	4858.62

Let us move to another entry and its AUC0-∞.
Incoming: Look at this substance and give its reported AUC0-∞. mPEG-ALD20k-Arg-Gly-Ala-Asp-Arg-Ala-Gly-Gly-Gly-Gly-Arg-Gly-Asp ({mPEG‑ALD 20 kDa}-RGADRAGGGGRGD) [mPEG-ALD20k-HM-1]
Outgoing: 5899.46

Values from patent US10869931B2
